# assay-summary: qHTS for Inhibitors of human tyrosyl-DNA phosphodiesterase 1 (TDP1): qHTS in cells in presence of CPT; further: nearly all actives have a fitted effect of over 55% in size
# conditions: chicken DT40 Tdp1-/-;hTDP1 cells + 20 nM CPT, ATP luminescence, 48 h; series mostly up to 46.2 µM
The whole screen tested about 420,000 compounds, of which about 50,000 (12%) were called active. Inconclusive results (about 26%) are left out. The call rests on the fitted dose curve; in most records, active means well fitted inhibition curve with a large enough effect; inconclusive means small, poorly fitted or top-dose-only effect; inactive means flat fitted curve, though single readings scatter. This excerpt belongs to a sample that is enriched for actives.
Write down one outcome, taken from active, inactive

CC(C)CC(=O)c1c[nH]c(C(=O)NCc2ccccc2)c1	inactive
CC1CCC2(CC1)NC(=O)N(CC(=O)NCc1ccco1)C2=O (stereo unspecified)	inactive
Cn1c2ccccc2c(=O)c2c(O)cccc21	inactive
CN1CCN(NC(=O)c2ccc(S(=O)(=O)N3CCCCCC3)cc2)CC1	inactive
Cc1ccc(-c2nc(C#N)c(NCCCn3ccnc3)o2)cc1	inactive

Next, consider the following compound.
**Q:** Hey, what did the test say about CC1(C(=O)NCC2CCOCC2)Cc2c(-c3cccc(C(N)=O)c3)ccnc2O1 (stereo unspecified) ?
**A:** active
